Where do these numbers come from? They come from paper PMC6582342.

Target protein (sequence): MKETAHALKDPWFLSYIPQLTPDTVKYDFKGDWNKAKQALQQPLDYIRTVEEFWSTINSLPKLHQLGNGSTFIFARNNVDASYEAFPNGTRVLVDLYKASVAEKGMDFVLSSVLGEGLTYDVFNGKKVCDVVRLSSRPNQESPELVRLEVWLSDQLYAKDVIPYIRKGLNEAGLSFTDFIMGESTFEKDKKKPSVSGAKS
Readout Kind: Kd (µM)
Answers are plain numbers, in µM.

For C[n+]1cn([C@@H]2O[C@H](COP(=O)(O)OP(=O)(O)OP(=O)(O)O)[C@@H](O)[C@H]2O)c2nc(N)[nH]c(=O)c21 , what is its reported Kd?
21
